molecular target: PTK2B (Homo sapiens, UniProt Q14289); construct: purchased DiscoverX (KINOMEscan); assay: KINOMEscan competitive binding; conditions: n=1, read-out: Percent inhibition, PTK2B
Sequence (Q14289 whole entry): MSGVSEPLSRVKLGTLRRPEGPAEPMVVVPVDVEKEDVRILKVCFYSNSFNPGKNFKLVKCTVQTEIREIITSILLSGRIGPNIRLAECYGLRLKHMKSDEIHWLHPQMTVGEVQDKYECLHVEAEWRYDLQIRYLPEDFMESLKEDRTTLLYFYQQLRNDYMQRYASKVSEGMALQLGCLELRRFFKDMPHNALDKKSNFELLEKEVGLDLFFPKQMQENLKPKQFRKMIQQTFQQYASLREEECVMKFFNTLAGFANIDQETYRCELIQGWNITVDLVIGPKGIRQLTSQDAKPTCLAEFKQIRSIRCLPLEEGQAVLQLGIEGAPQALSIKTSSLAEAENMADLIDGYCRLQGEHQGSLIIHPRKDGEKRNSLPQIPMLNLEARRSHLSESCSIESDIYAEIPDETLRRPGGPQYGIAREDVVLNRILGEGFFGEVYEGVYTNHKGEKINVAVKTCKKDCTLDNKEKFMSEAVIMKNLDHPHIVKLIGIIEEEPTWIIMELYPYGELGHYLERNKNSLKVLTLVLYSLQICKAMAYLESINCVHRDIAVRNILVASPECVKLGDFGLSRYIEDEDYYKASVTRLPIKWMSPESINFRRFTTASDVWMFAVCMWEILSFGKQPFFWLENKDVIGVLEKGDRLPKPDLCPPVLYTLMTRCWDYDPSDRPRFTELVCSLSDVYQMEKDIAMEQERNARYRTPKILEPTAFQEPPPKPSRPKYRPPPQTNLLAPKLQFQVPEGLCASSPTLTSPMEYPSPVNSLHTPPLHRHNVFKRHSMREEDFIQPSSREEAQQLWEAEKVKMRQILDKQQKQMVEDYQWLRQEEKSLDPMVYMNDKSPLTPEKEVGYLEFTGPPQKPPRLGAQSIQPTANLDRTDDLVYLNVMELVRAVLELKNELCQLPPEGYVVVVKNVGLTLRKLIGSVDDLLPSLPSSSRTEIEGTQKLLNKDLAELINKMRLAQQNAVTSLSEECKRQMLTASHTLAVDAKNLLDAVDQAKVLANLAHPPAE
We begin with a simple list: items and their reported inhibition at 10 µM.
reported-endpoint: inhibition at 10 µM (%)

molecule	observed-result
Cc1ccc(O)cc1N(C)c1ccnc(Nc2cccc(S(N)(=O)=O)c2)n1 [Compound 4]	99
C[C@@H](Oc1cc(-c2cnc3ccccn23)sc1C(N)=O)c1ccccc1Cl [Compound 8]	0
Clc1ccc(Nc2ncc(-c3ccccc3)s2)cc1 [Compound 10]	0
Nc1ncc2c(-c3ccncc3)c[nH]c2n1 [Compound 11]	0
CN1CCN(c2ccc(Nc3nccc(-c4cnn5ncccc45)n3)cc2C#N)CC1 [Compound 1]	83.9
Cc1ccc(O)cc1Nc1ccnc(Nc2cccc(C(N)=O)c2)n1 [Compound 3]	83.8
Fc1cccc(COc2ccc(Nc3ncnc4c3CN(CCN3CCOCC3)CC4)cc2Cl)c1 [Compound 6]	0
COc1cc(Nc2nccc(-c3sc(N)nc3-c3cccc(NC(=O)c4c(F)cccc4F)c3)n2)cc(OC)c1OC [Compound 7]	99.9
COc1ccc(Nc2nccc(-c3cnn4ncccc34)n2)cc1 [Compound 2]	89.6
c1ccc(COc2cccc(-c3ccnc4[nH]ccc34)c2)cc1 [Compound 9]	0
